Tested on: H226 (KRAS wildtype cell line)
protocol: Proliferation Assay H226
Assay type: cell-based
run-conditions: Homo sapiens, NCI-H226, n = 1
measure-name: pIC50
The value called pIC50 is obtained by taking minus log10 of the concentration in mol/L.

compound | measure-name | experimental-value
CSc1c(NS(=O)(=O)c2cccs2)cc(O)c(O)c1/C=C/C(=O)O | pIC50 | 4.15
CCOC(=O)/C=C/c1c(O)c(O)cc(NS(=O)(=O)c2cccs2)c1SC | pIC50 | 4.15
COc1cc(NS(=O)(=O)c2cccs2)c(SC)c(/C=C/N2C(=O)CN(C)C2=O)c1O | pIC50 | 4.22
Cc1ccc(-c2csc(Cn3nc(CC(O)C[N+](=O)[O-])c4ccccc4c3=O)n2)cc1 (stereo not shown) | pIC50 | 4.19
COc1cc(NS(=O)(=O)c2cccs2)c(SC)c(/C=C/C(=O)O)c1O | pIC50 | 4.12

Req: Look at this compound and give its reported pIC50. CCOC(=O)/C=C/c1c(O)c(OC)cc(N)c1SC
Resp: 4.22

Req: Look at this compound and give its reported pIC50. Cc1ccc(-c2csc(Cn3nc(CC(O)CN)c4ccccc4c3=O)n2)cc1 (stereo not shown)
Resp: 4.72

Req: Look at this compound and give its reported pIC50. COc1cc(NS(=O)(=O)c2cccs2)c(SC)c(/C=C/N2C(=O)COC2=O)c1O
Resp: 4.02
